assay comment: Therapeutic index, ratio of IC50 for CHO cells to IC50 for Plasmodium falciparum in presence of uridine
Assay type: cell-based
test parameters: hamster, CHO cells versus Plasmodium falciparum; read-out: Ratio IC50
assay readout: selectivity ratio
No unit in the answer, only the number.

Q: Indicate the recorded selectivity ratio value for this compound: O=c1cc(I)n([C@@H]2O[C@H](CO)[C@@H](O)[C@H]2O)c(=O)[nH]1
Ans: 35
